Give TGI for every item shown.
# Tested on: SNB-19 CNS
# test description: NCI tumour cell line growth inhibition, 48 h

q: Would you kindly share the measured TGI for CC[C@@]1(O)C(=O)OCc2c1cc1n(c2=O)Cc2c-1nc1ccccc1c2CC[Si](C)(C)C ?
a: > 100 µM

q: Would you kindly share the measured TGI for CCN(CC)c1ccc2c(c1)Oc1nc(N)c(C#N)c(N)c1C2Sc1ccc(SC)cc1 (stereo unspecified) ?
a: 2.9 µM

q: Would you kindly share the measured TGI for Cc1ccc(/C=C/C(=O)c2c([O-])on[n+]2-c2ccccc2)cc1 ?
a: > 33.5 µM

q: Would you kindly share the measured TGI for Cc1ccc(C)c(NC(=O)c2cc(-c3ccc([N+](=O)[O-])cc3)nc(N)n2)c1 ?
a: > 100 µM

q: Would you kindly share the measured TGI for C=C1CC(CCCl)(c2ccccc2)OC1=O (stereo unspecified) ?
a: > 100 µM

q: Would you kindly share the measured TGI for COc1ccc2c3c1C(=O)CCC3CO2 (stereo unspecified) ?
a: > 100 µM
